Measured max response values are reported for all entries that follow.
Assay Target: Rap guanine nucleotide exchange factor 3 (Homo sapiens)
Test Description: Validation qHTS for agonist of cAMP-regulated guanine nucleotide exchange factor 3 (EPAC1); also: % is scaled to controls: 0 for no effect and ±100 for the full control effect; nearly all actives have a fitted effect of over 70% in size
Cond: EPAC1 Rap1b BODIPY-GDP exchange, fluorescence; active compounds read high, percent of cAMP control response
Hit rate of the full screen: of about 16,000 compounds, about 160 (1%) were called active. Another 8% or so got no clear call; they are omitted. Shown is part of a subset that was picked to be rich in actives.
Value Kind: max response (%)

                                    molecule                              assay_target  result
 0  C=C1C(=C/C=C2\CCC[C@]3(C)[C@@H]([C@H](C)CCCC(C)(C)O)CC[C@@H]23)C[C@@H](O)C[C@@H]1O  Rap guanine nucleotide exchange factor 3 (Homo sapiens)   -16.6
 1     COc1ccc(CNc2ncncc2-c2ccccc2OC)c(OC)c1  Rap guanine nucleotide exchange factor 3 (Homo sapiens)   -21.3
 2  Cc1c(C(=O)NCC2CCCN(C)C2)cnn1-c1nccc(-c2ccco2)n1 (stereo not given)  Rap guanine nucleotide exchange factor 3 (Homo sapiens)   -6.37
 3  COc1cc2[nH]c(C)c(CCN3CCN(c4ccccc4)CC3)c2cc1OC  Rap guanine nucleotide exchange factor 3 (Homo sapiens)    5.71
 4  COc1cc(=O)n2c(c1C(=O)N(C)Cc1nonc1C)CCN(C(=O)c1ccc(C)cc1C)CC2  Rap guanine nucleotide exchange factor 3 (Homo sapiens)   -17.4
 5  COC(C)C(C(=O)OCC1=CCN2CC[C@H](O)[C@@H]12)C(C)C (stereo not given in full)  Rap guanine nucleotide exchange factor 3 (Homo sapiens)    5.22
 6  CC1CC[C@@]23CCC4(C)[C@@]5(C)CCC6C(C)(C)C(O)CC[C@@]6(C)C5C=C[C@@]4(OC2=O)C3C1C (stereo not given in full)  Rap guanine nucleotide exchange factor 3 (Homo sapiens)   -57.5
 7  CCCCC[C@H]1CN(C2CCCCC2)C(=O)[C@@H]1CC(=O)NCc1ccc(OC)cc1  Rap guanine nucleotide exchange factor 3 (Homo sapiens)   -76.4
 8             CNc1nc(-c2ccccc2OC)nc2ccccc12  Rap guanine nucleotide exchange factor 3 (Homo sapiens)    24.4
 9         CC(=O)N1CCC2(CCCN(c3ncccn3)C2)CC1  Rap guanine nucleotide exchange factor 3 (Homo sapiens)   -18.4
10  C=CC(C1=CC(=O)C=CC1=O)c1ccc(O)cc1 (stereo not given)  Rap guanine nucleotide exchange factor 3 (Homo sapiens)    3.74
11  CC(Oc1ccccc1)C(=O)N[C@@H]1C(=O)N2[C@@H]1SC(C)(C)[C@@H]2C(=O)O (stereo not given in full)  Rap guanine nucleotide exchange factor 3 (Homo sapiens)  -0.674
12  O=C1NC(CC(=O)N2CCC(n3c(C4CCC4)nc4cccnc43)CC2)c2ccccc21 (stereo not given)  Rap guanine nucleotide exchange factor 3 (Homo sapiens)    2.72
13                         CCNCCCNCCCNCCCNCC  Rap guanine nucleotide exchange factor 3 (Homo sapiens)   -1.46
14         O=c1c(CCc2ccccc2)nc2cncnc2n1C1CC1  Rap guanine nucleotide exchange factor 3 (Homo sapiens)      26
15  C[C@H]1C[C@H]2[C@@H]3CCC4=CC(=O)C=C[C@]4(C)[C@@H]3C(=O)C[C@]2(C)[C@@]1(O)C(=O)CO  Rap guanine nucleotide exchange factor 3 (Homo sapiens)   0.445
16  O=C(CCN1Cc2ccccc2OC(c2ccccc2)C1)N[C@@H]1CS(=O)(=O)C[C@H]1O (stereo not given in full)  Rap guanine nucleotide exchange factor 3 (Homo sapiens)   0.897
17  CC(=O)Nc1cc(C(=O)N2CCc3c(Cl)cccc3C2)cc2ncn(CCc3ccccn3)c12  Rap guanine nucleotide exchange factor 3 (Homo sapiens)    1.17
18  Cn1cc(-c2nc3cncnc3n(-c3ccccc3)c2=O)c2ccccc21  Rap guanine nucleotide exchange factor 3 (Homo sapiens)    -219
19  O=C(c1cc(C(F)(F)F)cc(C(F)(F)F)c1)N1CCC2(CCCN(c3ccccn3)C2)CC1  Rap guanine nucleotide exchange factor 3 (Homo sapiens)     -45
